# Target: androgen receptor (Homo sapiens, UniProt P10275, T878A)
# Construct: the presence of specific androgen receptors in LNCaP cells; endogenous in cells; extract or intact cells for the saturation analysis
# Sequence (P10275 whole entry T878A): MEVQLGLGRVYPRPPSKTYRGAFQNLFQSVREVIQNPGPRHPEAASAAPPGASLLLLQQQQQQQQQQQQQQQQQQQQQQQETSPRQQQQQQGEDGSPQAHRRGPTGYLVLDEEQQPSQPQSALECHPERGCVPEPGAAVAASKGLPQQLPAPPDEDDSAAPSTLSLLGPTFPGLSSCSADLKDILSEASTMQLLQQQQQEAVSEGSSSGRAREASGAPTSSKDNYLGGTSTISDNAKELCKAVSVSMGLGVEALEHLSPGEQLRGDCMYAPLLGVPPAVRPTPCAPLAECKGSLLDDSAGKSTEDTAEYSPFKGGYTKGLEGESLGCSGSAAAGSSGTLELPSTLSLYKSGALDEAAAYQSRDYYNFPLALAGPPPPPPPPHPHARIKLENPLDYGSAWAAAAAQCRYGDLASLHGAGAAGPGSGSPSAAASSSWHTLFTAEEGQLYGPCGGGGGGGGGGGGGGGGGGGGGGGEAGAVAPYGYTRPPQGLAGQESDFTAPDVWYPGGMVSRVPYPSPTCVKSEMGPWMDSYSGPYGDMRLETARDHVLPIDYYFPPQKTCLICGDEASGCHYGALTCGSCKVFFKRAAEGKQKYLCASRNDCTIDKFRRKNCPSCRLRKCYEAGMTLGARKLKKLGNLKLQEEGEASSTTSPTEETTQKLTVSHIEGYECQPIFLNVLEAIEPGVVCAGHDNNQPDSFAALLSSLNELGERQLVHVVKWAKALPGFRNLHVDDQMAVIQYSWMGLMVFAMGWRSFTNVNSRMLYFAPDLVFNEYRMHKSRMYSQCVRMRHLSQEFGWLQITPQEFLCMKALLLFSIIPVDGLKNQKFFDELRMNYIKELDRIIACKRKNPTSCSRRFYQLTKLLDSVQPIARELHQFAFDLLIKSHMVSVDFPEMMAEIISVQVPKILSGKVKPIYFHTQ
# Assay info: Competition for androgen receptors with 3H-testosterone in LNCaP cytosol-nuclear extracts (RBA)
# Format: binding
# Stated conditions: Table II, 5α-DHT = 100; 6×10^-9 M 3H-testosterone
# Protocol: Steroid receptors measurement: The presence of intracellular sex steroid binding proteins was investigated in whole cell extracts as well as in intact cells. […] The intracellular radioactivity was extracted with ethanol after ice-cold PBS washing. […] Cytosol-nuclear extracts were used to study competition for androgen receptors. […] The relative binding affinity (RBA) was calculated from the equation: […]
Readout: RBA (relative binding affinity to the androgen receptor)

Compound | Qualifier sign | Assay value
CCC(=O)C1(C)CCC2C3CCC4=CC(=O)CCC4=C3CCC21C (stereo not shown) [R5020] | = | 11
C#C[C@]1(O)CC[C@H]2[C@@H]3CCc4cc(O)ccc4[C@H]3[C@@H](OC)C[C@@]21C [R2858] | < | 0.01
C[C@]12CC[C@@H]3c4ccc(O)cc4CC[C@H]3[C@@H]1CCC2=O [Estrone, estrone] | = | 0.1
C[C@]12C[C@H](CCl)[C@@H]3c4ccc(O)cc4CC[C@H]3[C@@H]1CC[C@@H]2O [Org 4333, 11β-chloromethyl estradiol] | = | 1.2
